Listed next: entries and their corresponding normalized growth.
# Assay Method Text: chemical genetic growth profiling, strain panel (AID 1159580);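 note: tested at 20 µM; growth read once vehicle control cultures reached saturation at 30 °C; 1 = growth at the plate median or of vehicle wells; lower values mean less growth of the strain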
# Condition Parameters: S. cerevisiae deletion strains, growth OD, locus YMR263W, strain SAP30, hits give low values
Screen size: about 5,500 compounds; about 2,000 (36%) were called active. Roughly 18% stayed inconclusive and do not appear here. Some of the results follow.
Observable: normalized growth

* NNC(=O)c1cccnc1Oc1ccccc1 | 1.02 (inactive)
* COP(N)(=O)SC (stereo not drawn) | 0.994 (inactive)
* CCOC(=O)CC(SP(=S)(OC)OC)C(=O)OCC (stereo not drawn) | 1.01 (inactive)
* N#Cc1c(Cl)cccc1N1CCC(C(=O)NC(=O)Nc2ccc(Cl)cc2)CC1 | 1.01 (inactive)
* COc1c(O)cc2c(c1O)[C@H]1O[C@H](CO)[C@@H](O)[C@H](O)[C@@H]1OC2=O | 0.993 (inactive)
* COc1ccccc1N1CCN(CCCNc2cc(=O)n(C)c(=O)n2C)CC1 | 0.975 (inactive)
* Nc1nc2c(ncn2COC(CO)CO)c(=O)[nH]1 | 1.01 (inactive)
* NC(N)=Nc1ccc(Cl)cc1 | 1.02 (inactive)
* C[C@H]1CC2C3CCC4=CC(=O)C=C[C@]4(C)[C@@]3(Cl)[C@@H](O)C[C@]2(C)[C@@]1(O)C(=O)CO (stereo partly drawn) | 1.01 (inactive)
* Cc1ccc(NC(=O)CC#N)c(C)c1 | 0.998 (inactive)
* COc1ccccc1N1CCN(C(=O)c2cccs2)CC1 | 1.02 (inactive)
* Cc1nnsc1C(=O)O/N=C1/CCSc2ccc(F)cc21 | 0.989 (inactive)
* CC(=O)O[C@@H]1CC2C(C)(CC[C@H](O)C2(C)C)C2CC[C@]3(C)C(=CC(=O)O[C@H]3c3ccoc3)C21C (stereo partly drawn) | 0.998 (inactive)
* CC(C)c1cccc(C(C)C)c1O | 1 (inactive)
* COc1ccc(-c2cc(=O)c3c(O)c(OC)c(OC)cc3o2)cc1O | 1.05 (inactive)
* O=C(O)C1CC(=O)N(Cc2ccccc2Cl)C1 (stereo not drawn) | 1.01 (inactive)
* Cc1ccc(OCC(O)C(C)NC(C)C)c2c1CCC2 (stereo not drawn) | 1 (inactive)
* CC(=O)NC(CS)C(=O)O (stereo not drawn) | 0.988 (inactive)
* CNC[C@H](O)c1cccc(O)c1 | 1.01 (inactive)
* CC1(C)O[C@@H]2CC3C4C[C@H](F)C5=CC(=O)CC[C@]5(C)C4[C@@H](O)C[C@]3(C)[C@]2(C(=O)CO)O1 (stereo partly drawn) | 1.02 (inactive)
* COc1ccccc1N1CCN(C(=O)Nc2cc(Cl)cc(Cl)c2)CC1 | 0.937 (inactive)
* O=C(NC1CCCCC1)N1CCN(c2ncccc2C(F)(F)F)CC1 | 0.988 (inactive)
* CCOC(=O)C1C(=O)C=C(c2cccs2)CC1c1ccc(OC)c(OC)c1Cl (stereo not drawn) | 1.01 (inactive)
* CCSc1ncccc1C(=O)N[C@@H](CCSC)C(=O)OC | 1.01 (inactive)
* N#Cc1c(Cl)cccc1N1CCCC1 | 0.915 (inactive)
* Cc1ccc(C(C)C)c(O)c1C(=O)O | 0.989 (inactive)
* N#Cc1c(Cl)cccc1Cl | 1.02 (inactive)
* Nc1nc(/C(=C/CC(=O)O)C(=O)N[C@@H]2C(=O)N3C(C(=O)O)=CCS[C@H]23)cs1 | 1.01 (inactive)
